Data origin, for the record: PubChem BioAssay (NCI)

Test system: DMS 114 small cell lung
Test: NCI tumour cell line growth inhibition, 48 h
Could you label it 1 if measured TGI is 40 µM or higher, and -1 otherwise?

CC(=O)NC(CCCNC(=O)OCc1ccccc1)C(=O)NCc1ccccc1 (stereo unspecified)    1

Now look at this entry.
Qu. Is TGI at least 40 µM? Consider COC(=O)C1CC(=O)O[C@H]1c1ccc(OC)c(OC)c1 (stereo partly specified)
Ans. 1

* * *

Quick reference: TGI of the listed items.
Tested on: K-562 leukemia
Test: NCI tumour cell line growth inhibition, 48 h

O=[N+]([O-])c1ccc(/C=C/c2ccc(/C=C/c3ccc([N+](=O)[O-])cc3[N+](=O)[O-])cc2)c([N+](=O)[O-])c1    > 100 µM
O=C(OC1OC2COC(=O)c3cc(O)c(O)c(O)c3-c3c(cc(O)c(O)c3O)C(=O)OC3C2OC(=O)[C@@]24CC(=O)[C@@](O)(OC25C(=O)O[C@H]2[C@@H](O)CO[C@@]25O)C2(O)Oc5c(O)c(O)cc(c5C24)C(=O)OC13)c1cc(O)c(O)c(O)c1 (some centres undefined)    > 100 µM
O=C1Nc2ccc(Cl)cc2/C1=N/c1nc(-c2ccc(Cl)cc2)cs1    > 100 µM

# context switch: different compound, same TGI
Qu. For C=CCN1C(=O)NC(=O)/C(=C/c2c3ccccc3cc3ccccc23)C1=O , what is its reported TGI?
Ans. 66.5 µM

* * *

Tested on: SW-620 colon
Test: NCI tumour cell line growth inhibition, 48 h
Measured TGI, listed per entry.

Previously resolved entries follow.
Cc1nc2ccc(S(=O)(=O)O)cc2c(=O)n1-c1ccc(C(=O)NN2C(=O)C(Cl)C2c2cccs2)cc1 (stereo unspecified)    > 100 µM
COc1nc(N)nc2nc[nH]c12    > 1000 µM
CN(C)c1ccc(/C=c2/sc3nc(=O)c(-c4ccccc4NC(=O)C(F)(F)F)nn3c2=O)cc1    > 100 µM

Qu. Look up TGI: CCN(CC)/[N+]([O-])=N/OS(=O)(=O)N(C)C
Ans. > 100 µM

Qu. Look at this molecule and give its reported TGI. CN(C)[C@@H]1C(=O)C(C(=O)NCc2nc3[nH]cnc(=S)c3[nH]2)=C(O)[C@@]2(O)C(=O)C3=C(O)c4c(O)cccc4[C@@](C)(O)[C@H]3C[C@@H]12
Ans. > 100 µM

Qu. Report TGI for CN(c1ccccc1)c1c2ccccc2nc2[nH]c3ccccc3c12 please.
Ans. 8.82 µM

Qu. Using the record for COc1cc2c3c(n(CCCN)c(=O)c2cc1OC)-c1ccc(N)cc1C3=O , report its TGI.
Ans. 11.7 µM

Qu. Would you kindly share the measured TGI for O=C(O)CCC(NC(=O)c1ccc(Nc2nc3ccc(C(F)(F)F)cc3nc2C(=O)O)cc1)C(=O)O (stereo unspecified) ?
Ans. > 100 µM

Qu. Given the molecule C=CCN1C(=O)NC(=O)/C(=C/c2c3ccccc3cc3ccccc23)C1=O , what is its reported TGI?
Ans. > 100 µM

Qu. Would you kindly share the measured TGI for O=c1c(Oc2ccc(F)cc2F)cc2cnc(NC3CCOCC3)nc2n1C1CC1 ?
Ans. > 25 µM

* * *

Tested on: UACC-257 melanoma
Assay: NCI tumour cell line growth inhibition, 48 h
Recorded TGI for the following compounds

Please review the entries below; each comes with its answer.
O=C1NC(c2ccccc2Cl)Nc2ccccc21 (stereo not drawn)    > 100 µM
CCOC(=O)C1(C)CCC(C(=O)OC)C1=O (stereo not drawn)    > 100 µM
COc1ccc(/C=C2\C[C@H]3[C@@H]4CC=C5C[C@@H](O)CC[C@]5(C)[C@H]4CC[C@]3(C)\C2=N\O)cc1    45.7 µM
CC[C@]12C=CCN3CC[C@@]4(c5ccc(OC)cc5N(C)[C@H]4[C@@](O)(C(=O)OC)[C@@H]1OC(=O)CCCN1CCN(CCCC(=O)O[C@@H]4[C@]5(CC)C=CCN6CC[C@@]7(c8ccc(OC)cc8N(C)[C@H]7[C@@]4(O)C(=O)OC)[C@@H]65)CC1)[C@@H]32    3.69 µM
CCOC(=O)c1nc2ccc(C(F)(F)F)cc2nc1Oc1ccc(OC)cc1    > 100 µM

Qu. Entry Cc1cnc2[nH]c(-c3cccc4ccccc34)cc(=O)c2c1 has what TGI?
Ans. > 100 µM

Qu. TGI for C#CCCCCCC(=O)N[C@H]1C=C[C@@H]2/C=C(C)/C=C/[C@@H](C)[C@H]([C@H](C)[C@H](O)[C@@H](C)NC(C)=O)OC(=O)/C=C/C=C(C)\C=C\[C@]2(C)C1 ?
Ans. 0.0324 µM

Qu. What does the data say about its TGI? Entry: N#CC1=C(N)Oc2c(ccc3ccccc23)C1c1cc2ccccc2n2nnnc12 (stereo not drawn)
Ans. > 100 µM

Qu. Entry C[C@H]1CCC/C=C/[C@@H]2C[C@H](OC(=O)CN(C)C)C[C@H]2[C@H](O)/C=C/C(=O)O1 has what TGI?
Ans. 27.8 µM

Qu. Query (compound): CCN(CC)/[N+]([O-])=N/OS(=O)(=O)N(C)C ; field requested: TGI
Ans. > 100 µM
